Ref: ChEMBL document CHEMBL1132959

Reported Ki is given for each of the following molecules.
biological target: Gonadotropin-releasing hormone receptor (Rattus norvegicus); test: Affinity for rat gonadotrophin releasing hormone (GnRH) receptor using HEK293 cells transfected with rat Gonadotropin-releasing hormone receptor; type: cell-based; conditions: hek293
Express your answer in nM, writing the number without its unit.

INSERT INTO assay_data (structure_string, outcome_measure, quantity_unit, reported_measurement) VALUES
  ('CC(=O)N[C@@H]1CC(=O)NCC(=O)NC[C@H]2NC(=O)[C@@H](CC(=O)NC[C@H](C(N)=O)NC(=O)[C@H]3CCCN3C(=O)[C@H](CCCN=C(N)N)NC(=O)[C@@H](CC(C)C)NC(=O)[C@@H](Cc3ccc4ccccc4c3)NC2=O)NC(=O)[C@@H](Cc2c[nH]c3ccccc23)NC(=O)[C@H](Cc2ccc(Cl)cc2)NC1=O', 'Ki', 'nM', 0.49);

Prompt: Identify measured Ki corresponding to CC(=O)N[C@@H]1CCC(=O)NCC(=O)NCC[C@H]2NC(=O)[C@@H](CC(=O)NC[C@H](C(N)=O)NC(=O)[C@H]3CCCN3C(=O)[C@H](CCCN=C(N)N)NC(=O)[C@@H](CC(C)C)NC(=O)[C@@H](CCCN=C(N)N)NC2=O)NC(=O)[C@@H](Cc2c[nH]c3ccccc23)NC(=O)[C@H](Cc2ccc(Cl)cc2)NC1=O
Response: 17

###

Each entry below lists one item and its recorded pKi value.
Molecular target: UniProt P30969
Sequence (P30969 whole entry): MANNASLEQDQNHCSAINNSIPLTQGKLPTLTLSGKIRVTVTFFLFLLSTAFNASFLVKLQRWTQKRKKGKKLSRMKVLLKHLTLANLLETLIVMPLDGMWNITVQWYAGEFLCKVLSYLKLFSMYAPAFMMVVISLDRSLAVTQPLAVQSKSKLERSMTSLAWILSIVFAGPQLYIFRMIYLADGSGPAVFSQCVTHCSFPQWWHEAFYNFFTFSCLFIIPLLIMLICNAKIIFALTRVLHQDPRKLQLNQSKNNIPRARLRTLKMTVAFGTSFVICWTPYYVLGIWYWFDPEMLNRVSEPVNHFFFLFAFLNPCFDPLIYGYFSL
Assay: Affinity for rat gonadotrophin releasing hormone (GnRH) receptor using HEK293 cells transfected with rat Gonadotropin-releasing hormone receptor
Format: cell-based
Please report pKi as the negative decimal logarithm of the molar concentration, giving only the number.

INSERT INTO measurements (structure_string, outcome_measure, reported_measurement) VALUES
  ('CC(=O)N[C@H](Cc1ccc2ccccc2c1)C(=O)N[C@H](Cc1ccc(Cl)cc1)C(=O)N[C@@H]1CC(=O)NCCC[C@@H](C(=O)N2CCC[C@H]2C(=O)N[C@H](C)C(N)=O)NC(=O)[C@H](CC(C)C)NC(=O)[C@@H](Cc2ccc3ccccc3c2)NC(=O)[C@H](CCCNC(=N)N)NC(=O)[C@H](C)NC1=O', 'pKi', 7.85);

--- query ---
Prompt: Specify measured pKi for CC(=O)N[C@H]1CC(=O)NCC(=O)NCC[C@@H]2NC(=O)[C@H](CC(=O)NC[C@@H](C(N)=O)NC(=O)[C@@H]3CCCN3C(=O)[C@H](CCCN=C(N)N)NC(=O)[C@H](CC(C)C)NC(=O)[C@@H](Cc3ccc4ccccc4c3)NC2=O)NC(=O)[C@@H](Cc2c[nH]c3ccccc23)NC(=O)[C@@H](Cc2ccc(Cl)cc2)NC1=O .
Response: 9.66

###

Quick reference for Ki among some compounds
biological target: UniProt:P30969; experiment: Affinity for rat gonadotrophin releasing hormone (GnRH) receptor using HEK293 cells transfected with rat Gonadotropin-releasing hormone receptor; assay type: cell-based; details: hek293
Report the figure in nM without appending any unit label.

For orientation, consider the following solved cases.
INSERT INTO assay_data (structure_string, outcome_measure, quantity_unit, reported_measurement) VALUES
  ('CC(=O)N[C@@H]1CCC(=O)NCC[C@H]2NC(=O)[C@@H](CC(=O)NC[C@H](C(N)=O)NC(=O)[C@H]3CCCN3C(=O)[C@H](CCCN=C(N)N)NC(=O)[C@@H](CC(C)C)NC(=O)[C@@H](Cc3ccc4ccccc4c3)NC2=O)NC(=O)[C@@H](Cc2c[nH]c3ccccc23)NC(=O)[C@H](Cc2ccc(Cl)cc2)NC1=O', 'Ki', 'nM', 1.7),
  ('CC(=O)N[C@@H]1CCC(=O)NCC(=O)NC[C@H]2NC(=O)[C@@H](CC(=O)NC[C@H](C(N)=O)NC(=O)[C@H]3CCCN3C(=O)[C@H](CCCN=C(N)N)NC(=O)[C@@H](CC(C)C)NC(=O)[C@@H](Cc3ccc4ccccc4c3)NC2=O)NC(=O)[C@@H](Cc2c[nH]c3ccccc23)NC(=O)[C@H](Cc2ccc(Cl)cc2)NC1=O', 'Ki', 'nM', 0.44);

Kindly consider the entry below.
Prompt: Please report Ki for the following compound: CC(=O)N[C@H]1CC(=O)NCC(=O)NCC[C@H]2NC(=O)[C@H](CC(=O)NC[C@@H](C(N)=O)NC(=O)[C@@H]3CCCN3C(=O)[C@H](CCCN=C(N)N)NC(=O)[C@H](CC(C)C)NC(=O)[C@@H](Cc3ccc4ccccc4c3)NC2=O)NC(=O)[C@@H](Cc2c[nH]c3ccccc23)NC(=O)[C@@H](Cc2ccc(Cl)cc2)NC1=O
Response: 3.1

###

target: Gonadotropin-releasing hormone receptor (Rattus norvegicus, UniProt P30969); assay: Affinity for rat gonadotrophin releasing hormone (GnRH) receptor using HEK293 cells transfected with rat Gonadotropin-releasing hormone receptor; assay type: cell-based; details: hek293
outcome-measure: log10(Ki) (log10 of the value in nM)
Give log10 of Ki, with Ki taken in nM.

INSERT INTO measurements (structure_string, system_under_test, outcome_measure, reported_measurement) VALUES
  ('CC(=O)N[C@@H]1CC(=O)NC[C@@H]2NC(=O)[C@@H](CC(=O)NC[C@H](C(N)=O)NC(=O)[C@H]3CCCN3C(=O)[C@H](CCCN=C(N)N)NC(=O)[C@@H](CC(C)C)NC(=O)[C@@H](Cc3ccc4ccccc4c3)NC2=O)NC(=O)[C@@H](Cc2c[nH]c3ccccc23)NC(=O)[C@H](Cc2ccc(Cl)cc2)NC1=O', 'Gonadotropin-releasing hormone receptor (Rattus norvegicus, UniProt P30969)', 'log10(Ki)', 0.68),
  ('CC(=O)N[C@H](Cc1ccc2ccccc2c1)C(=O)N[C@H]1CC(=O)NCC(=O)NC[C@@H]2NC(=O)[C@H](Cc3ccc(O)cc3)NC(=O)[C@H](CC(=O)NC[C@@H](C(N)=O)NC(=O)[C@@H]3CCCN3C(=O)[C@H](CCCN=C(N)N)NC(=O)[C@H](CC(C)C)NC2=O)NC(=O)[C@@H](Cc2c[nH]c3ccccc23)NC1=O', 'Gonadotropin-releasing hormone receptor (Rattus norvegicus, UniProt P30969)', 'log10(Ki)', 2.69),
  ('CC(=O)N[C@@H]1CCC(=O)NCCC[C@H]2NC(=O)[C@@H](CC(=O)NC[C@H](C(N)=O)NC(=O)[C@H]3CCCN3C(=O)[C@H](CCCN=C(N)N)NC(=O)[C@@H](CC(C)C)NC(=O)[C@@H](Cc3ccc4ccccc4c3)NC2=O)NC(=O)[C@@H](Cc2c[nH]c3ccccc23)NC(=O)[C@H](Cc2ccc(Cl)cc2)NC1=O', 'Gonadotropin-releasing hormone receptor (Rattus norvegicus, UniProt P30969)', 'log10(Ki)', -0.07),
  ('CC(=O)N[C@@H]1CSSC[C@H]2NC(=O)[C@@H](CC(=O)NC[C@H](C(N)=O)NC(=O)[C@H]3CCCN3C(=O)[C@H](CCCN=C(N)N)NC(=O)[C@@H](CC(C)C)NC(=O)[C@H](Cc3ccc4ccccc4c3)NC2=O)NC(=O)[C@@H](Cc2c[nH]c3ccccc23)NC(=O)[C@H](Cc2ccc(Cl)cc2)NC1=O', 'Gonadotropin-releasing hormone receptor (Rattus norvegicus, UniProt P30969)', 'log10(Ki)', 0.76),
  ('CC(=O)N[C@H](Cc1ccc2ccccc2c1)C(=O)N[C@H](Cc1ccc(Cl)cc1)C(=O)N[C@@H]1CC(=O)NCCCC[C@@H]2NC(=O)[C@H](CC(C)C)NC(=O)[C@@H](Cc3ccc4ccccc4c3)NC(=O)[C@H](CCCNC(=N)N)NC(=O)[C@H](CC(=O)NC[C@@H](C(N)=O)NC(=O)[C@@H]3CCCN3C2=O)NC1=O', 'Gonadotropin-releasing hormone receptor (Rattus norvegicus, UniProt P30969)', 'log10(Ki)', 1.04);

We now examine a further compound.
Prompt: Provide one value: measured log10(Ki) of CC(=O)N[C@H]1CCC(=O)NCCCC[C@@H]2NC(=O)[C@H](CC(C)C)NC(=O)[C@@H](Cc3ccc4ccccc4c3)NC(=O)[C@H](CCCN=C(N)N)NC(=O)[C@H](CC(=O)NC[C@H](C(N)=O)NC(=O)[C@@H]3CCCN3C2=O)NC(=O)[C@@H](Cc2cccnc2)NC(=O)[C@H](Cc2ccc(Cl)cc2)NC1=O
Response: 0.04
